- experimental.protocol: yeast display, Sf9 membrane polyspecificity reagent, FACS + sequencing; frameworks hold sequencing errors

{"residue.sequence": "QVQLVESGGGLVQAGGSLRLICAASGFTFFSYTMGWYRQAPGKERELVAAISKRGSRTYYADSVKGRFTISRDNAKNTVYLQMNSLKQEDTAVYYCAADSGPEVVHRREDYWGQGTQVTLSS", "polyreactivity (PSR sort gate)": "high polyreactivity"}
{"residue.sequence": "QVHLVESGGGLVQAGGSLRLSCAASGSSFRYYAMGWYRQAPGKERELVAAISGSGGRTYYADSVKGRFTISRDNEKNNVYLQMNSLKPEDTAVYYCAAQSGYYDSAYGYWGQGTKVTVSS", "polyreactivity (PSR sort gate)": "high polyreactivity"}
{"residue.sequence": "QVQLVESGGGLVQAGGSLRLSCAASGSTFYRYAMGWYRQAPGKEREFVAAISGSGGSTRYADSVKGRFTISRDNAKNTVYLQMNSLKPEDTAVYYCAARSRDGYITFDYWGQGTQVTVSS", "polyreactivity (PSR sort gate)": "high polyreactivity"}
{"residue.sequence": "QVQLVESGGGLVQAGGSLRLSCAASGFIFRRYAMGWYRQAPGKERELVAGISNRGGRTYYADSVKGRFTISRDNAKNTVYLQMNSLKPEDTAVYYCAADQKSGYRVSRYYVFYDYWGQGTQVTVSS", "polyreactivity (PSR sort gate)": "high polyreactivity"}
{"residue.sequence": "QVQLVESGGGLVQAGGSLRLSCAASGRTFRQNVMGWYRQAPGKERELVAAITASGGNTYYADSVKGRFTISRDNAKNTVYLQMNSLKPEDTAVYYCNAVPYLAMDYWGQGTQVTVSS", "polyreactivity (PSR sort gate)": "high polyreactivity"}
{"residue.sequence": "QVQLVESGGGLVQAGGSLRLSCAASGFTFRWYTMGWYRQAPGKERELVAAISWSGTSTYYADSVKGRFTISRDNAKNIVYLQMNSLKPEDTAVYYCAAADFYYTGADDYWGQGTQVTVSS", "polyreactivity (PSR sort gate)": "high polyreactivity"}
{"residue.sequence": "QVQLVESGGGLVQAGGTLRLRCAASGSTFFPYAIGWYRPAPGKEWELVAAITSGGRTHYADSVKGRFTISRDNAKNTVYLQMMSLIPEDSAVYYCAAVVPRHLLTYRMDYWGQGNQVTVSS", "polyreactivity (PSR sort gate)": "high polyreactivity"}
{"residue.sequence": "QVQLVESGGGLVQAGGSLRLSCAASGFTFYTNAMGWYRQAPGKERELVAAISKRGASTYYADSVKGRFTISRDNAKNTFYLQMYSLKPEDTAVYYCAASSRTHGSYYYWGQGTQVTVSS", "polyreactivity (PSR sort gate)": "high polyreactivity"}
{"residue.sequence": "QVQLVESGGGLVQAGGSLRLSCAASGFTFRTNAMGWYRQAPGKERELVAVISRRGGSTYYADSVKGRFTISRDNAKNTVYLQMNSLKPEDTGVYYCNAGDGTVGRTYYRAYDYWGQGTQVTVSS", "polyreactivity (PSR sort gate)": "high polyreactivity"}
{"residue.sequence": "QVQLVESGGGLVQAGGSLRLSCAASGSIFFPNPLGWYRQAPGKERELVDAISWSGDSSYADSVKGRFTISRDNAKNTVYLQMNSLKPEDTAVYYCAAVYLWWSYEFDYWGQGTQVTVSS", "polyreactivity (PSR sort gate)": "low polyreactivity"}
{"residue.sequence": "QVQLVESGGGLVQAGGSLRLSCAASGRTFQPYAMGWYRQAPGKERELVAAITSIGGSTFYADSVKGRFTISRDNAKNTVYLQMNSLKPEDTAVYYCARRGYYRSIWERDYWGQGTQVTVSS", "polyreactivity (PSR sort gate)": "low polyreactivity"}
{"residue.sequence": "QVQLVESGGGLVQAGGSLRLSCAASGSIFNRYTMGWYRQAPGKERELVAAISKRGGSTYYADSVKGRFTISRDNAKNTVYLQMNSLKPEDTAVYYCAAAGYHSGKGGGYWGQGTQVTVSS", "polyreactivity (PSR sort gate)": "high polyreactivity"}
